- STUDY TARGET: JAK3 (Homo sapiens, UniProt P52333)
- Sequence (P52333 whole entry): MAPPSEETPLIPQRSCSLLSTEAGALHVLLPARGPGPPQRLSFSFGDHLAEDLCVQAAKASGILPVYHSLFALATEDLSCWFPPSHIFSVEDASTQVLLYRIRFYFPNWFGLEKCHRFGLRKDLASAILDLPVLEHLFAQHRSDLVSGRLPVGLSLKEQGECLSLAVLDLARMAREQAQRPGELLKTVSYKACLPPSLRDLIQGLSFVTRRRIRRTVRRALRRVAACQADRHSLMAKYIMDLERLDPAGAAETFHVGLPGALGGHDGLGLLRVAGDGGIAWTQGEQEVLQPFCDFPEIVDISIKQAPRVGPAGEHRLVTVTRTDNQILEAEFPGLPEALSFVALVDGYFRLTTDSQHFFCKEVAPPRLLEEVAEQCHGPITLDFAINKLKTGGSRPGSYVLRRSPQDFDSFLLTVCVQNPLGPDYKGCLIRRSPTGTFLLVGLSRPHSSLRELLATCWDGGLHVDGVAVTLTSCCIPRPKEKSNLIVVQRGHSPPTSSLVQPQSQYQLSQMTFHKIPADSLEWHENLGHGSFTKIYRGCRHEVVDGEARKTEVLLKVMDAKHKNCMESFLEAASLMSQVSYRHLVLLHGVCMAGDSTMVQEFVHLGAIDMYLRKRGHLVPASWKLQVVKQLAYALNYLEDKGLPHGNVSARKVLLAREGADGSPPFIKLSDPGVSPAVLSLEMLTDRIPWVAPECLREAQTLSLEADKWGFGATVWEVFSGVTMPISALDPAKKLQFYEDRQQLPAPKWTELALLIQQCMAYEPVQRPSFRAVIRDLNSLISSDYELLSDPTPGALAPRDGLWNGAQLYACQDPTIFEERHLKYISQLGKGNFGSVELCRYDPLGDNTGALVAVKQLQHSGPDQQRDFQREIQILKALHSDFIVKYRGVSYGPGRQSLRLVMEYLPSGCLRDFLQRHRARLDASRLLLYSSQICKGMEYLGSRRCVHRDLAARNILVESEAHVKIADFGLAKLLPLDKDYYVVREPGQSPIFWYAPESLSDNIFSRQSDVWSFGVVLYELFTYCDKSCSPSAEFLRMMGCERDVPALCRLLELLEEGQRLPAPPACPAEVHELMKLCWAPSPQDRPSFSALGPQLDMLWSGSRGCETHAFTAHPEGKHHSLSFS
- TEST METHOD NOTES: Inhibition of a panel of kinases, in vitro HotSpot kinase assay: JAK3
- Format: biochemical
- CONDITION DETAILS: D-compounds panel data; 1 μM ATP; read-out: IC50 JAK3
READOUT NAME: IC50

Examples from the recorded data:
C[C@@H]1[C@H](NC(=O)c2ccc(C3CC3)cc2)CCCN1c1cnc(C(N)=O)c(Nc2ccc(OC3CCN(C4CCCC4)CC3)cc2)n1 : 1000 to 10000 nM
C[C@@H]1[C@H](NC(=O)c2ccc(C3(O)CCCC3)cc2)CCCN1c1cnc(C(N)=O)c(Nc2cnn(C)c2)n1 : 100 to 1000 nM
CCN(C)C(=O)N[C@@H]1CCCN(c2cnc(C(N)=O)c(Nc3cnn(C)c3)n2)[C@@H]1C : 1000 to 10000 nM
C[C@@H]1[C@H](NC(=O)c2ccc(C3CC3)cc2F)CCCN1c1cnc(C(N)=O)c(Nc2ccc(N3CCN(C4CCCC4)CC3)cc2)n1 : 100 to 1000 nM

IC50 reading for C[C@@H]1[C@H](NC(=O)c2ccc(C(C)(C)C#N)cc2)CCCN1c1cnc(C(N)=O)c(Nc2ccc(OC3CCN(C)CC3)cc2)n1 : 1000 to 10000 nM

IC50 reading for C[C@@H]1[C@H](NC(=O)c2ccc(-c3ncccn3)cc2)CCCN1c1cnc(C(N)=O)c(Nc2cnn(C)c2)n1 : 100 to 1000 nM

IC50 reading for NC(=O)c1ncc(N2CCC[C@@H](NC(=O)c3ccc(C4CC4)cc3F)C2)nc1Nc1cc(-c2ccccc2)ns1 : > 10000 nM

IC50 reading for Cn1cc(Nc2nc(N3CCC[C@@H](NC(=O)c4ccc(C5CC5)cc4)C3)nnc2C(N)=O)cn1 : 1000 to 10000 nM

IC50 reading for C[C@@H]1[C@H](NC(=O)c2ccc(C(C)(C)N)cc2)CCCN1c1cnc(C(N)=O)c(Nc2cnn(C)c2)n1 : 100 to 1000 nM

IC50 reading for CN1CCN(C(=O)c2ccc(Nc3nc(N[C@H]4CC[C@H](NC(=O)N(C)C)CC4)cnc3C(N)=O)cc2)CC1 : 100 to 1000 nM

IC50 reading for CN1CCN(c2ccc(Nc3nc(N4CCC[C@@H](n5ccc6cc(C7CC7)ccc6c5=O)C4)cnc3C(N)=O)cc2)CC1 : 1000 to 10000 nM

IC50 reading for C[C@@H]1[C@H](NC(=O)c2ccc(C3CC3)nc2)CCCN1c1cnc(C(N)=O)c(Nc2ccc(OC3CCC(F)(F)CC3)cc2)n1 : 1000 to 10000 nM

IC50 reading for C[C@@H]1[C@H](NC(=O)c2ccc(C3CC3)cc2)CCCN1c1cnc(C(N)=O)c(Nc2cnn(C3CCC(F)(F)CC3)c2)n1 : > 10000 nM

---

- STUDY TARGET: ITK (Homo sapiens, UniProt Q08881)
- Sequence (Q08881 whole entry): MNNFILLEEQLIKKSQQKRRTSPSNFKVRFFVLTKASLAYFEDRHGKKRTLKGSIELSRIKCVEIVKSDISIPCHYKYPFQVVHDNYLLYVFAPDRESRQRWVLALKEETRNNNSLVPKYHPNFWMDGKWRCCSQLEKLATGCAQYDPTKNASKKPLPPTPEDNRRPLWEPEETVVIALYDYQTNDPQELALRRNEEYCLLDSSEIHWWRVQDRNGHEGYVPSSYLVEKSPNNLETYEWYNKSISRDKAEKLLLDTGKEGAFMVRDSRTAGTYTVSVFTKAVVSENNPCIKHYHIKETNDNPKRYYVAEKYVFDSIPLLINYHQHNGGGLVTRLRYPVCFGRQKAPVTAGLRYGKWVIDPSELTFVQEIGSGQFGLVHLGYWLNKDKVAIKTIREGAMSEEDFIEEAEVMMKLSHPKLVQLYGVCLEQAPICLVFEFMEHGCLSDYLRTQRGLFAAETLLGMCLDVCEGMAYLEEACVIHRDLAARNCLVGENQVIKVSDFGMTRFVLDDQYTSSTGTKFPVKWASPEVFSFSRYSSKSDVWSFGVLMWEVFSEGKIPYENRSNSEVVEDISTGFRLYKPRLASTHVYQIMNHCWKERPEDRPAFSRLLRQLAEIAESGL
- TEST METHOD NOTES: Inhibition of a panel of kinases, in vitro HotSpot kinase assay: ITK
- Format: biochemical
- CONDITION DETAILS: D-compounds panel data; 1 μM ATP
pIC50: −log10 of the molar value.
READOUT NAME: pIC50

Examples from the recorded data:
CN(C)C(=O)N[C@@H]1CCCN(c2cnc(C(N)=O)c(Nc3ccc(C4(C)CCN(C5CCCC5)CC4)cc3)n2)[C@@H]1CO : 5.00 to 6.00
C[C@@H]1C[C@@H](NC(=O)c2ccc(C3CC3)cc2)CN(c2cnc(C(N)=O)c(Nc3cnn(C)c3)n2)C1 : 5.00 to 6.00
Cn1cc(Nc2nc(N3CCC(F)(F)[C@@H](NC(=O)c4ccc(C5CC5)cc4)C3)cnc2C(N)=O)cn1 : < 5.00
C[C@@H]1[C@H](NC(=O)N(C)C)CCCN1c1cnc(C(N)=O)c(Nc2ccc(N3CCN(C)CC3)cn2)n1 : < 5.00
Cc1cc2cc(C(=O)N[C@@H]3CCCN(c4cnc(C(N)=O)c(Nc5cnn(C)c5)n4)[C@@H]3C)ccc2o1 : 6.00 to 7.00
C[C@@H]1[C@H](NC(=O)c2ccc(C(O)(C(F)(F)F)C(F)(F)F)cc2)CCCN1c1cnc(C(N)=O)c(Nc2cnn(C)c2)n1 : 6.00 to 7.00

# evaluate next
pIC50 reading for C[C@@H]1[C@H](NC(=O)c2ccc(C3CC3)cc2)CCCN1c1cnc(C(N)=O)c(Nc2cnn(C)c2C(F)(F)F)n1 : < 5.00
